Hi there, I'd appreciate the recorded viability, T/C for every entry that follows.
Tested on: 885512-296-R-J2-PDC complex spheroid viability;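 further: spheroids exposed to the compounds for one week; percent of tumor spheroid viability relative to DMSO vehicle control wells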
TEST_DETAILS: Anticancer human tumor 885512-296-R-J2-PDC patient-derived breast carcinoma cell line growth inhibition [GQUAD]
APPLIED_CONDITIONS: second compound 3.16 µM; first compound 0.0316 µM; hits give low values
Write it as a number; the unit % goes unstated.

Value wanted: viability, T/C (885512-296-R-J2-PDC complex spheroid viability) of entry CC(C)n1c(=O)n(C)c2cnc3cc(F)c(-c4ccc(OCCCN5CCCCC5)nc4)cc3c21 + Cc1[nH]c2ccc(F)cc2c1-c1nc2c3cccnc3c3ncccc3c2[nH]1
7.3

Value wanted: viability, T/C (885512-296-R-J2-PDC complex spheroid viability) of entry CC1COCCN1c1cc(-c2ccnn2C)c2ccnc(-c3ccn[nH]3)c2n1 (stereo unspecified) + Cc1[nH]c2ccc(F)cc2c1-c1nc2c3cccnc3c3ncccc3c2[nH]1
1.59

Value wanted: viability, T/C (885512-296-R-J2-PDC complex spheroid viability) of entry O=C(c1cc(Cc2n[nH]c(=O)c3ccccc23)ccc1F)N1CCN(C(=O)C2CC2)CC1 + Cc1cnc(CNC(=O)c2c(=O)c3ccc(N4CCCN(C)CC4)nc3n3c2sc2ccccc23)cn1
25

Value wanted: viability, T/C (885512-296-R-J2-PDC complex spheroid viability) of entry Cc1cccc(N(C)C(=O)C2C(O)CCN2c2nc(C)cc(C(F)(F)F)c2C#N)c1 (stereo unspecified) + Cc1cnc(CNC(=O)c2c(=O)c3ccc(N4CCCN(C)CC4)nc3n3c2sc2ccccc23)cn1
43.4

Value wanted: viability, T/C (885512-296-R-J2-PDC complex spheroid viability) of entry CCc1c2c(nc3ccc(O)cc13)-c1cc3c(c(=O)n1C2)COC(=O)[C@]3(O)CC + Cc1[nH]c2ccc(F)cc2c1-c1nc2c3cccnc3c3ncccc3c2[nH]1
1.56

Value wanted: viability, T/C (885512-296-R-J2-PDC complex spheroid viability) of entry Cc1cccc(N(C)C(=O)C2C(O)CCN2c2nc(C)cc(C(F)(F)F)c2C#N)c1 (stereo unspecified) + CN(C)c1ccc(Nc2c3ccc(NC(=O)CCN4CCCC4)cc3nc3cc(NC(=O)CCN4CCCC4)ccc23)cc1
94.8

Value wanted: viability, T/C (885512-296-R-J2-PDC complex spheroid viability) of entry CCc1c2c(nc3ccc(O)cc13)-c1cc3c(c(=O)n1C2)COC(=O)[C@]3(O)CC + Cc1cnc(CNC(=O)c2c(=O)c3ccc(N4CCCN(C)CC4)nc3n3c2sc2ccccc23)cn1
0.24

Value wanted: viability, T/C (885512-296-R-J2-PDC complex spheroid viability) of entry C=CCn1c(=O)c2cnc(Nc3ccc(N4CCN(C)CC4)cc3)nc2n1-c1cccc(C(C)(C)O)n1 + CN(C)c1ccc(Nc2c3ccc(NC(=O)CCN4CCCC4)cc3nc3cc(NC(=O)CCN4CCCC4)ccc23)cc1
105

Value wanted: viability, T/C (885512-296-R-J2-PDC complex spheroid viability) of entry O=C(NO)c1cnc(N2CCN(S(=O)(=O)c3ccc4ccccc4c3)CC2)nc1 + Cc1[nH]c2ccc(F)cc2c1-c1nc2c3cccnc3c3ncccc3c2[nH]1
2.35

Value wanted: viability, T/C (885512-296-R-J2-PDC complex spheroid viability) of entry O=c1[nH]cc(F)c(=O)[nH]1 + Cc1cnc(CNC(=O)c2c(=O)c3ccc(N4CCCN(C)CC4)nc3n3c2sc2ccccc23)cn1
23.5

Value wanted: viability, T/C (885512-296-R-J2-PDC complex spheroid viability) of entry Nc1ccn(C2OC(CO)C(O)C2(F)F)c(=O)n1 (stereo unspecified) + CN(C)c1ccc(Nc2c3ccc(NC(=O)CCN4CCCC4)cc3nc3cc(NC(=O)CCN4CCCC4)ccc23)cc1
8.52
